A collection of compounds and their measured cytotoxicity at 10 µM
experiment: Toxicity liver stage against HepG2, at 10uM; format: cell-based; set-up: test concentration 10 uM, cell line HepG2-A16-CD81EGFP; settings: human, HepG2-A16-CD81EGFP cells; read-out: INHIBITION

INSERT INTO measurements (item_smiles, val) VALUES
  ('CCc1cnc(CN2CCC(O)(c3cc(OC)cc(OC)c3)CC2)o1', '-0.276%');

## Input Look up and report measured cytotoxicity at 10 µM for this entry: Cc1n[nH]c(C)c1CC(=O)N1CC[C@@](C)(O)[C@@H](Cc2ccccc2)C1
## Output 5.94%

## Input Look up and report measured cytotoxicity at 10 µM for this entry: CCOC(=O)Cc1n[nH]c(-c2cncc(Br)c2)n1
## Output 3.24%
